systemUnderTest: T1, human programmed cell death protein 1 (hPD-1) C93S (aa 24-167) (Homo sapiens, UniProt Q15116, C93S)
T1 construct: made as a fusion with a TEV site and human Fc; the Fc was cut off with TEV protease; source: Expi293F, purified (Protein A, TEV cleavage of Fc, SEC; monomer fractions); not shown: Fc (human), C-terminal, cleaved
T1 sequence (Q15116 24-167 C93S): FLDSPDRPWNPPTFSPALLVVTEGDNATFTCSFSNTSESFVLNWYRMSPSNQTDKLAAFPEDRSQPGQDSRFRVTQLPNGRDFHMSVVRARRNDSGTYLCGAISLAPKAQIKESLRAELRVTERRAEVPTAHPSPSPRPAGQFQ
runDescription: SPR; Carterra LSA; Fab from the ammonium sulfate precipitate of the culture supernatant immobilised on a NiHC200M chip; hPD-1 (1-1024 nM) or mPD-1-Fc (4-1024 nM) as analyte, fourfold dilution series, no regeneration; HBS-EP pH 7.4, 25 °C; medians over the spots of a construct, KD = koff/kon
assayContext: one partner purified
pKd: −log10 of the molar value.
measuredProperty: pKd

1. toripalimab Fab L.N35A (Fab, V domains shown, as the heavy chain of Sm3; light chain of Sm3 with this change; numbers count from the chain's first residue; source: Brevibacillus, culture supernatant (ammonium sulfate precipitate); not shown: 6xHis, C-terminal, kept; 6xHN, C-terminal, kept) VH: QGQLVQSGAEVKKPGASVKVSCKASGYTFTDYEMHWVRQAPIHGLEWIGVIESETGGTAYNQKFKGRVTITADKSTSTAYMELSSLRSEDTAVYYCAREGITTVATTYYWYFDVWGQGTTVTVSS VL: DVVMTQSPLSLPVTLGQPASISCRSSQSIVHSNGATYLEWYLQKPGQSPQLLIYKVSNRFSGVPDRFSGSGSGTDFTLKISRVEAEDVGVYYCFQGSHVPLTFGQGTKLEIK; > 8.88
2. toripalimab Fab H.K65A (Fab, V domains shown, heavy chain of Sm3 with this change; numbers count from the chain's first residue; as the light chain of Sm3; source: Brevibacillus, culture supernatant (ammonium sulfate precipitate); not shown: 6xHis, C-terminal, kept; 6xHN, C-terminal, kept) VH: QGQLVQSGAEVKKPGASVKVSCKASGYTFTDYEMHWVRQAPIHGLEWIGVIESETGGTAYNQKFAGRVTITADKSTSTAYMELSSLRSEDTAVYYCAREGITTVATTYYWYFDVWGQGTTVTVSS VL: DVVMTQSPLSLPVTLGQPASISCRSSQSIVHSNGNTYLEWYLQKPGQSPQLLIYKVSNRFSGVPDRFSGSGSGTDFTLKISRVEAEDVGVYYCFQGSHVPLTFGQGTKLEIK; > 8.82
